Field: IC50 at 48 h. Provide a value for each of the compounds that follow.
PROTOCOL TEXT: Cytotoxicity against human WI-38 cells assessed as inhibition of cell proliferation incubated for 48 hrs by MTT assay
Format: toxicity, cell-based
Give the quantity in µM, number only.

Q: Query (compound): `[2H]C([2H])([Se][Se]C([2H])([2H])C([2H])([2H])C(=O)O)C([2H])([2H])C(=O)O` ; field requested: IC50 at 48 h
Result: 1000

Q: Query (compound): `O=C(O)CC[Se][Se]CCC(=O)O` ; field requested: IC50 at 48 h
Result: 171

* * *

PROTOCOL TEXT: Therapeutic index, ratio of IC50 for cytotoxicity against human MCF-10A cells to IC50 for antiproliferative activity against human NCI-H3122 cells by MTT assay
Type: toxicity, cell-based
CONDITION: MCF-10A cells versus NCI-H3122 cells, read-out: Ratio IC50
MEASURED QUANTITY: selectivity ratio
// no unit string in output, number only

Q: Query (molecule): `O=C(O)CC[Se][Se]CCC(=O)O` ; field requested: selectivity ratio
Result: 2.8

Q: Query (molecule): `[2H]C([2H])([Se][Se]C([2H])([2H])C([2H])([2H])C(=O)O)C([2H])([2H])C(=O)O` ; field requested: selectivity ratio
Result: 22.4

* * *

PROTOCOL TEXT: Therapeutic index, ratio of IC50 for cytotoxicity against human Intestine 407 cells to IC50 for antiproliferative activity against human A549 cells by MTT assay
Assay type: toxicity, cell-based
CONDITION: Intestine 407 cells versus A549 cells, read-out: Ratio IC50
Field: selectivity ratio. Provide a value for each of the compounds that follow.
// no unit string in output, number only

Q: Query (compound): `O=C(O)CC[Se][Se]CCC(=O)O` ; field requested: selectivity ratio
Result: 31.7

Q: Query (compound): `[2H]C([2H])([Se][Se]C([2H])([2H])C([2H])([2H])C(=O)O)C([2H])([2H])C(=O)O` ; field requested: selectivity ratio
Result: 33.3

* * *

PROTOCOL TEXT: Therapeutic index, ratio of IC50 for cytotoxicity against human MCF10A cells to IC50 for antiproliferative activity against human NCI-H1975 cells by MTT assay
Format: toxicity, cell-based
CONDITION: MCF10A cells versus NCI-H1975 cells, read-out: Ratio IC50
Field: selectivity ratio. Provide a value for each of the compounds that follow.
// no unit string in output, number only

Q: Query (compound): `O=C(O)CC[Se][Se]CCC(=O)O` ; field requested: selectivity ratio
Result: 5.7

Q: Query (compound): `[2H]C([2H])([Se][Se]C([2H])([2H])C([2H])([2H])C(=O)O)C([2H])([2H])C(=O)O` ; field requested: selectivity ratio
Result: 45.5

* * *

Field: selectivity ratio. Provide a value for each of the compounds that follow.
PROTOCOL TEXT: Therapeutic index, ratio of IC50 for cytotoxicity against human Intestine 407 cells to IC50 for antiproliferative activity against human NCI-H3122 cells by MTT assay
Assay type: toxicity, cell-based
CONDITION: Intestine 407 cells versus NCI-H3122 cells, read-out: Ratio IC50

Q: Query (compound): `[2H]C([2H])([Se][Se]C([2H])([2H])C([2H])([2H])C(=O)O)C([2H])([2H])C(=O)O` ; field requested: selectivity ratio
Result: 10.8

Q: Query (compound): `O=C(O)CC[Se][Se]CCC(=O)O` ; field requested: selectivity ratio
Result: 3.2
